Measured absorbance values are reported for all entries that follow.
- target of assay: T1, human GPVI extracellular region-human Fc fusion protein (hGPVI-hFc) (human)
- T1 construct: Expressed in COS-1, purified on Protein A; also called GPVI-HHH-hFc; hGPVIHHH-hFc
- T1 sequence (chain, as listed by the source limits assumed): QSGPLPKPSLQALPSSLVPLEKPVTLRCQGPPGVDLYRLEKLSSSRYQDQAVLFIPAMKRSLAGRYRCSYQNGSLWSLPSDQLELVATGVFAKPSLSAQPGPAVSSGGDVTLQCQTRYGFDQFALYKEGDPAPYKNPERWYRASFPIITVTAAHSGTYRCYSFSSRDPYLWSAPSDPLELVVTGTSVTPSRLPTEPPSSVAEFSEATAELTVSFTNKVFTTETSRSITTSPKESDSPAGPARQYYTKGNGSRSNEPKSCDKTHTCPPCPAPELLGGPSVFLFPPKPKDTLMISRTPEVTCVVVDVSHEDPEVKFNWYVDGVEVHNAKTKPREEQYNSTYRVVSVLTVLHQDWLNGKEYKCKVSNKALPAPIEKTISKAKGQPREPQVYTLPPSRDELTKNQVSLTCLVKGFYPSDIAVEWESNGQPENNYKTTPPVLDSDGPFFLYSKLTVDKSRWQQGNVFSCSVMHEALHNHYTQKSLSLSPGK
- procedure text: ELISA on immobilised hGPVI-hFc; + A450 0.5-1.0, ++ 1.0-2.0, +++ more than 2.0

Reported absorbance of F1249-20-1 (antibody, V domains shown) VH: QVQLQQSGAELVRPGVSVKISCKGSGYTFTDYAMHWVKQSHAKSLEWIGVISTYYGDTSYNQKFKGKATMTVDKSSSTAYMELARLTSEDSAIYYCARAEDYDPWFAYWGQGTLVTVSA VL: DIVLTQSPASLAVSLGQRATISCRASESVDSYGNSFMYWYQQKPGQPPKLLIYRASNLESGIPARFSGSGSRTDFTLTINPVEADDVATYYCQQSDEDPLTFGAGTKLELKR : > 2 od

Reported absorbance of F1251-1-1 (antibody, V domains shown) VH: QVNLLQSGAALVKPGASVKLSCKASGYTFTDYYIHWVKQSHGKSLEWIGYINPNSGYTNYNEKFKSKATLTVDKSTNTAYMELSRLTSEDSATYYCTRCNSGYGDWFAYWGQGTLLTVSS VL: DIQMTQSPPVLSASVGDRVTLSCKASQNINKNLDWYQQKHGEAPKLLIYYTNNLQTDIPSRFSGSGSGTDYTLTISSLQPEDVATFYCYQYNSGPGTFGAGTKLELKR : 0.5 to 1 od

Reported absorbance of F1249-24-1 (antibody, V domains shown) VH: QVQLQQSGAELVRPGVSVKISCKGSGYTFTDYAMHWVKQSHAKSLEWIGVISTYYGDTSYNQKFKGKATMTVDKSSSTAYMELARLTSEDSAIYYCARAEDYDPWFAYWGQGTLVTVSA VL: DIVLTQSPASLAVSLGQRATISCRASESVDSYGNSFMHWYQQKPGQPPKLLIYRASNLESGIPARFSGSGSRTDFTLTINPVEADDVATYYCQQSDEDPLTFGAGTKLELKR : > 2 od

Reported absorbance of F1249-30-1 (antibody, V domains shown) VH: QVQLQQSGAELVRPGVSVKISCKGSGYTFTDYAMHWVKQSHAKSLEWIGVISTYYGDTSYNQKFKGKAAMTVDKSSSTAYMELARLTSDDSAIYYCARAEDYDPWFAYWGQGTLVTVSA VL: DIVLTQSPASLAVSLGQRATISCRASESVDSYGNSFMHWYQQKPGQPPKLLIYRASNLESGIPARFSGSGSRTDFTLTINPVEADDVATYYCQQSDEDPLTFGAGTKLELKR : > 2 od
